The reported numbers originate from patent US9708368B2.

target: E. coli SPase (Escherichia coli); test: Biochemical SPase activity assay (fluorogenic peptide substrate), E. coli enzyme
Sequence (P00803 whole entry): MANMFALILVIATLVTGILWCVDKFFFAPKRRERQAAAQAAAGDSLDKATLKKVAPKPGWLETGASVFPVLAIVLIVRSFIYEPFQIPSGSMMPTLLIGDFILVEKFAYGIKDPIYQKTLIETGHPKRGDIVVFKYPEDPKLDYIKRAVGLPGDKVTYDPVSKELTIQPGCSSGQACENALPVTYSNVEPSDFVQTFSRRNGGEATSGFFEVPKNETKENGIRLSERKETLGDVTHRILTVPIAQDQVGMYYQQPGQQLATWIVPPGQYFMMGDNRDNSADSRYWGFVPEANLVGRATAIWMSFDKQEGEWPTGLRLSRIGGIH
pIC50: −log10 of the molar value. Square brackets hold non-standard residues; d marks the D form. Peptide text beside a SMILES is read from it. * marks the point of attachment. Biphenylcarbonyl(4'-Bu) = CCCCc1ccc(-c2ccc(C(=O)*)cc2)cc1; X1 = C[C@H](N*)B1OC2C[C@@H]3C[C@@H](C3(C)C)[C@]2(C)O1; Benzoyl(4-(4-Cl-Ph)) = O=C(c1ccc(-c2ccc(Cl)cc2)cc1)*; Dopa = N[C@@H](Cc1ccc(O)c(O)c1)C(=O)O; Dab = NCC[C@H](N)C(=O)O; βAla = NCCC(=O)O
# pIC50 per record follows

{"compound": "CCCCc1ccc(-c2ccc(C(=O)NCCC(=O)N[C@@H](CCCCN)C(=O)N[C@H](C(=O)N[C@@H](C)C(=O)N[C@@H](CCC(=O)O)C(=O)N[C@@H](C)B3OC4C[C@@H]5C[C@@H](C5(C)C)[C@]4(C)O3)[C@@H](C)O)cc2)cc1 (stereo partly drawn) [Compound 195] ({Biphenylcarbonyl(4'-Bu)-βAla}-KTAE-X1)", "pIC50": 7.72}
{"compound": "C[C@H](NC(=O)[C@H](CC(N)=O)NC(=O)[C@H](C)NC(=O)[C@@H](NC(=O)[C@H](CCCCN)NC(=O)CCNC(=O)c1ccc(-c2ccc(Cl)cc2)cc1)[C@@H](C)O)B1OC2C[C@@H]3C[C@@H](C3(C)C)[C@]2(C)O1 (stereo partly drawn) [Compound 201] ({Benzoyl(4-(4-Cl-Ph))-βAla}-KTAN-X1)", "pIC50": 8.10}
{"compound": "CCCCc1ccc(-c2ccc(C(=O)N[C@@H](CCN)C(=O)N[C@@H](Cc3ccc(O)c(O)c3)C(=O)N[C@@H](C)C(=O)N[C@@H](Cc3ccc(O)c(O)c3)C(=O)N[C@@H](C)B3OC4C[C@@H]5C[C@@H](C5(C)C)[C@]4(C)O3)cc2)cc1 (stereo partly drawn) [Compound 189] ({Biphenylcarbonyl(4'-Bu)}-[Dab][Dopa]A[Dopa]-X1)", "pIC50": 6.37}
